# credit: patent US7384952B2

# ASSAY_TARGET: SK channel
# TEST_DESCRIPTION: competitive apamin-binding inhibition assay (same manner as WO02/079189, Experiment 1)
# PARTICULARS: competitive binding assay against apamin, a selective SK channel blocker; read-out: apamin-binding inhibitory activity (IC50)

STRUCTURE_STRING	ASSAY_TARGET	IC50 [µM]
CCOc1cccc(Cn2ncc3c(N4CCN(C(=O)c5ccc(N(CCN(C)C)C(=O)C6CC6)cc5)CC4)ncnc32)c1	SK channel	0.05
